Human β2 adrenoceptor (Homo sapiens, UniProt P07550): reported pIC50 for various compounds.
Sequence (P07550 whole entry): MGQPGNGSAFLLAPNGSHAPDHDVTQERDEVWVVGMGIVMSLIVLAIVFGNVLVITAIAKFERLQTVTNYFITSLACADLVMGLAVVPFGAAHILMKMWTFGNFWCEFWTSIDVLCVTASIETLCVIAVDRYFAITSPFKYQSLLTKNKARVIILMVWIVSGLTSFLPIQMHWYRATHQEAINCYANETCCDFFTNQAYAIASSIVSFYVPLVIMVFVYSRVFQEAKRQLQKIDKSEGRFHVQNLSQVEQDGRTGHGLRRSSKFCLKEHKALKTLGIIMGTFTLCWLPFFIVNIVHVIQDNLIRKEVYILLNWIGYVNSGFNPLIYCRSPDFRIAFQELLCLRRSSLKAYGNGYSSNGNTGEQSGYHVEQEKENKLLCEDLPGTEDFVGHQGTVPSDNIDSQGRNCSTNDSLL
pIC50: −log10 of the molar value.

Worked examples, 10 compounds total:
INSERT INTO assay_data (compound, experimental_endpoint, data_value) VALUES
  ('O=C(COc1cccc([C@](O)(C(=O)OCC2CCN(Cc3ccccc3)CC2)c2ccccc2)c1)N[C@H]1CCCN(C(=O)c2ccc(CCNC[C@H](O)c3ccc(O)c4[nH]c(=O)ccc34)cc2)C1', 'pIC50', '8.52 to 9.52'),
  ('O=C(COc1cccc([C@](O)(C(=O)OCC2CCN(Cc3ccccc3)CC2)c2ccccc2)c1)N1CCC2(CC1)CCN(C(=O)c1ccc(CNC[C@H](O)c3ccc(O)c4[nH]c(=O)ccc34)cc1)CC2', 'pIC50', '8.52 to 9.52'),
  ('O=C(N[C@@H]1CCCN(C(=O)COc2cccc([C@](O)(C(=O)OCC3CCN(Cc4ccccc4)CC3)c3ccccc3)c2)C1)c1ccc(CCNC[C@H](O)c2ccc(O)c3[nH]c(=O)ccc23)cc1', 'pIC50', '8.52 to 9.52'),
  ('O=C(NCCCOc1cccc([C@](O)(C(=O)OCC2CCN(Cc3ccccc3)CC2)c2ccccc2)c1)c1ccc(CCNC[C@H](O)c2ccc(O)c3[nH]c(=O)ccc23)cc1', 'pIC50', '> 9.52'),
  ('O=C(COc1cccc([C@](O)(C(=O)OCC2CCN(Cc3ccccc3)CC2)c2ccccc2)c1)N1CCCC2(CCN(C(=O)c3ccc(CCNC[C@H](O)c4ccc(O)c5[nH]c(=O)ccc45)cc3)CC2)C1', 'pIC50', '8.52 to 9.52'),
  ('O=C(c1ccc(CNC[C@H](O)c2ccc(O)c3[nH]c(=O)ccc23)cc1)N1CC(COc2cccc([C@](O)(C(=O)OCC3CCN(Cc4ccccc4)CC3)c3ccccc3)c2)C1', 'pIC50', '8.52 to 9.52'),
  ('O=C(OCC1CCN(Cc2ccccc2)CC1)C(O)(c1ccc(F)cc1)c1cccc(OCCCCCNC[C@H](O)c2ccc(O)c3[nH]c(=O)ccc23)c1 (some centres unmarked)', 'pIC50', '> 9.52'),
  ('O=C(COc1cccc([C@](O)(C(=O)OCC2CCN(Cc3ccccc3)CC2)c2ccccc2)c1)N1CC2(CCN(C(=O)c3ccc(CCNC[C@H](O)c4ccc(O)c5[nH]c(=O)ccc45)cc3)CC2)C1', 'pIC50', '> 9.52'),
  ('O=C(OCC1CCN(Cc2ccccc2)CC1)C(O)(c1cccc(F)c1)c1cccc(OCCCCCNC[C@H](O)c2ccc(O)c3[nH]c(=O)ccc23)c1 (some centres unmarked)', 'pIC50', '> 9.52'),
  ('CN1CC(OC(=O)[C@](O)(c2ccccc2)c2cccc(OCCCCCNC[C@H](O)c3ccc(O)c4[nH]c(=O)ccc34)c2)C1', 'pIC50', '> 9.52');

Hello, I would appreciate it if you could give pIC50 for each entry below.
1. O=C(COc1cccc([C@](O)(C(=O)OCC2CCN(Cc3ccccc3)CC2)c2ccccc2)c1)NCC1CCN(C(=O)c2ccc(CCNC[C@H](O)c3ccc(O)c4[nH]c(=O)ccc34)cc2)CC1
2. O=C(NCCCOc1cccc([C@](O)(C(=O)OCC2CCN(C3CCC3)CC2)c2ccccc2)c1)c1ccc(CNC[C@H](O)c2ccc(O)c3[nH]c(=O)ccc23)cc1
3. O=C(OCC1CCN(Cc2ccccc2)CC1)[C@](O)(c1ccccc1)c1cccc(OCCCCCCCCNCC(O)c2ccc(O)c3[nH]c(=O)ccc23)c1 (stereo in doubt)
4. O=C(NCCCNC(=O)c1cccc(C(O)(C(=O)OCC2CCN(Cc3ccccc3)CC2)c2ccccc2)c1)c1ccc(CNC[C@H](O)c2ccc(O)c3[nH]c(=O)ccc23)cc1 (some centres unmarked) [Compound 50, diformate]
5. O=C(N[C@@H]1CCN(C(=O)COc2cccc([C@](O)(C(=O)OCC3CCN(Cc4ccccc4)CC3)c3ccccc3)c2)C1)c1ccc(CCNC[C@H](O)c2ccc(O)c3[nH]c(=O)ccc23)cc1
6. CN(CCNC(=O)c1ccc(CNC[C@H](O)c2ccc(O)c3[nH]c(=O)ccc23)cc1)C(=O)COc1cccc([C@](O)(C(=O)OCC2CCN(Cc3ccccc3)CC2)c2ccccc2)c1

> 9.52
> 9.52
8.52 to 9.52
< 8.52
8.52 to 9.52
8.52 to 9.52
